The measurements presented in this section are drawn from patent US20080008707A1.

assaySystem: HUI77, murine IgM anti-denatured-collagen monoclonal antibody
experimentSummary: competition ELISA on coated dn-collagen IV
Square brackets hold non-standard residues; d marks the D form. Ends that are not written are not given here. Hyp = O=C(O)[C@@H]1C[C@@H](O)CN1
endpointLabel: % inhibition of HUI77 binding to dn-collagen IV, peptide 1000 µM (%)

Below, 4 binders whose answers are already recorded.
binder | obsValue
F[Hyp]GP[Hyp]GPDGL[Hyp]GSMGP[Hyp]G [synthetic peptide No. 7, … (SEQ ID NO: 36)] | 62
L[Hyp]GS[Hyp]G [synthetic peptide No. 10, LPGSPG (SEQ ID NO: 26)] | 8.5
GPXGPXG (contains hydroxyproline ('where P is hydroxyproline'); positions marked in the tables but lost in this text) [synthetic peptide No. 15, GPPGPPG (SEQ ID NO: 32)] | 77
L[Hyp]GF[Hyp]G [synthetic peptide No. 19, LPGFPG (SEQ ID NO: 23)] | 75

A: PGP[Hyp]GP[Hyp]GPY [synthetic peptide No. 4, … (SEQ ID NO: 28)]
B: [Hyp]GAKGLPGP [synthetic peptide No. 13, … (SEQ ID NO: 17)]
C: GPPG (also: hydroxyproline marking, if any, lost) [synthetic peptide No. 22, GPPG (SEQ ID NO: 35)]
[in] Sort low-to-high on % inhibition of HUI77 binding to dn-collagen IV, peptide 1000 µM, please. Returns: the labels arranged in the requested order.
[out] C, B, A
